# assay.name: gradient 5% acetonitrile 3 min, to 50% in 2 min, to 85% in 15 min, held 3 min, 100 µL/min
# condition.context: column: Zorbax Extend-C18 2.1 x 50 mm; eluents: water / acetonitrile, 0.1% formic acid
Can you tell me RP-LC retention time for the items I'm about to list?
Numbers only, in s.

Known results for molecules:
{"columns": ["molecule", "RP-LC retention time (s)"],
 "data": [
  ["O=C(Cc1csc2nc(-c3cccc(Cl)c3)cn12)Nc1ccc(F)cc1F", 942],
  ["O=C(CN1CCN(C(=O)CCc2ccccc2)CC1)c1cccs1", 550],
  ["Cc1ccc(-n2c(N3CCCC(C(=O)NCc4ccc(C)c(C)c4)C3)nc3ccsc3c2=O)cc1 (stereo not given)", 987],
  ["O=C(NCCc1c[nH]c2ccccc12)c1cc(=O)[nH]c2ccccc12", 682]
]}

Here are 2 molecules. What values of RP-LC retention time were reported for them?
1. O=C(COc1cccc(Cl)c1)N1CCN(c2nc(CN3CCCCC3)cs2)CC1
2. Cn1cc(CN2CCN(C(=O)C3CCN(S(=O)(=O)N4CCCC4)CC3)CC2)c2ccccc21

Resp:
1. 681
2. 655

Here are 3 molecules. What values of RP-LC retention time were reported for them?
1. COc1ccc(-c2nnc(CC(=O)N3CCCC3)o2)cc1
2. CCOc1cc(=O)n2c(c1C(=O)OCc1ccc(C)cc1)CCCCC2
3. Nc1ccc2c(c1)S(=O)(=O)c1cc(N)ccc1-2

Resp:
677
1010
635

Here are 8 molecules. What values of RP-LC retention time were reported for them?
1. O=c1n(Cc2ccccc2F)nc2c(S(=O)(=O)N3CCc4ccccc4C3)cccn12
2. CCOc1ccc(-n2nc(CO)c(C(=O)NC)n2)cc1
3. Nc1nc(N2CCCC2)ncc1C(=O)NCc1ccccc1
4. CCCCNC(=O)c1cn(CCC)nc1S(=O)(=O)N1CCN(c2ccccc2OCC)CC1
5. Cc1ccc(NS(=O)(=O)c2cc3n(c2)CCN(CC(C)C)C3=O)cc1
6. CCOc1ccc(Cl)cc1S(=O)(=O)N1CCC(C(=O)NCCCOC)CC1
7. O=C(O)CSc1nc2ccccc2s1
8. O=C(NC1CCCCC1)C1CCCN(c2ccnc(-c3ccc(F)cc3)n2)C1 (stereo not given)

Resp:
1. 947
2. 763
3. 615
4. 1140
5. 794
6. 761
7. 795
8. 695

Here are 6 molecules. What values of RP-LC retention time were reported for them?
1. Cc1cccc(C)c1NC(=O)Nc1ccc(S(N)(=O)=O)cc1
2. Cc1ccccc1C(=O)N1CCC2(CC1)NCc1ccccc1-n1ccnc12
3. Cc1cccc(CNC(=O)C2=C3CCCN3c3ccc(F)cc3S2(=O)=O)c1
4. COc1ccc2ncc(S(=O)(=O)c3ccc(C)c(Cl)c3)c(OC)c2c1
5. Cc1cc(C)n(-c2nc(C)c(C(=O)N3CCc4ccccc4C3)s2)n1
6. Cc1ccc2[nH]c(=O)c(CCC(=O)N3CCN(C4CCCCC4)CC3)cc2c1

Resp:
751
609
936
1100
1090
619

###

# assay.name: gradient 5% acetonitrile 3 min, to 50% in 2 min, to 85% in 15 min, held 3 min, 100 µL/min
# condition.context: column: Zorbax Extend-C18 2.1 x 50 mm; eluents: water / acetonitrile, 0.1% formic acid
readout.kind: RP-LC retention time (s)
One number for each entry, in s.

Known results for molecules:
{"columns": ["cpd.smiles", "unit.tag", "RP-LC retention time"],
 "data": [
  ["Cc1ccc(S(=O)(=O)CCc2noc(C(=O)N3CCC4(CC3)OCCO4)n2)cc1", "s", 816],
  ["O=C(Nc1ccccc1C(F)(F)F)N1CCc2nc[nH]c2C1", "s", 558],
  ["COCCNC(=O)c1cc2c(n(-c3ccc(F)cc3)c1=O)CCCC2=O", "s", 701]
]}

Here are 2 molecules. What values of RP-LC retention time were reported for them?
1. Cc1ccc(C(=O)OCCN2C(=O)c3ccccc3C2=O)cc1
2. CC1CCN(S(=O)(=O)c2ccc(-c3nnc(C(=O)NCc4ccc(Cl)cc4)o3)cc2)CC1

Resp:
[775, 1120]
